Quick reference for EC50 among some molecules
- target_or_system: human APJ receptor (Homo sapiens (Human), UniProt P35414)
- Sequence (P35414 whole entry): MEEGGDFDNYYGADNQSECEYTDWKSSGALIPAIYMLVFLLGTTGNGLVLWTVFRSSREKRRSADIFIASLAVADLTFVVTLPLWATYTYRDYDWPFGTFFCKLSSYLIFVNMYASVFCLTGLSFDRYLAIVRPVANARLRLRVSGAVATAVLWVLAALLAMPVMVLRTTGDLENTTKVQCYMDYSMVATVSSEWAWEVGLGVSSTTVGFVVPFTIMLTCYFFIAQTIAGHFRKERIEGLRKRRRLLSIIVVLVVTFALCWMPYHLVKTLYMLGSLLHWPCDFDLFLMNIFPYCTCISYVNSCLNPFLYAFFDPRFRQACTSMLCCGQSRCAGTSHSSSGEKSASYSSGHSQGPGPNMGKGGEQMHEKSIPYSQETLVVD
- measurement_notes: [35S]GTPγS binding assay on membranes from CHO cells stably expressing human APJ receptor
- condition_summary: read-out: Activity hAPJ SPA EC50 IP
readout_name: EC50 (nM)

COCC1(n2c(NS(=O)(=O)[C@@H](C)[C@H](OC)c3ncc(Cl)cn3)nnc2[C@H]2CCC(C)(C)O2)CC1 (single isomer, unassigned) [Example 289.0] = 1100
COc1cccc(OC)c1-n1c(NS(=O)(=O)[C@@H](C)[C@H](C)c2ncc(Cl)cn2)nnc1[C@H]1CCN(C(=O)OC(C)(C)C)C1 (stereo in doubt) = 210
CO[C@H](c1ncc(Cl)cn1)[C@H](C)S(=O)(=O)Nc1nnc([C@@H]2CC[C@H](C)O2)n1Cc1ccon1 (single isomer, unassigned) [Example 403.0] = 280

----------
Quick reference for log10(EC50) among some compounds
- target_or_system: human APJ receptor (Homo sapiens (Human), UniProt P35414)
- measurement_notes: [35S]GTPγS binding assay on membranes from CHO cells stably expressing human APJ receptor
- condition_summary: read-out: Activity hAPJ SPA EC50 IP
readout_name: log10(EC50) (log10 of the value in nM)

COc1cccc(OC)c1-n1c(NS(=O)(=O)[C@@H](C)[C@H](C)c2cnc(C)cn2)nnc1[C@H]1CCCCO1 (single isomer, unassigned) [Example 107.0] = 0.71
C[C@H](c1ncc(Cl)cn1)[C@H](C)S(=O)(=O)Nc1nnc([C@@H]2CCOC2)n1[C@H](C)c1ccon1 (single isomer, unassigned) [Example 416.0] = 2.28
COc1cccc(OC)c1-n1c(NS(=O)(=O)[C@@H](C)[C@H](C)c2ncc(C)cn2)nnc1[C@@H]1CCO[C@@H]1C (single isomer, unassigned) [Example 121.0] = 2.94
COCC(COC)n1c(NS(=O)(=O)[C@@H](C)[C@H](OC)c2ncc(Cl)cn2)nnc1[C@H]1CCCO1 = 2.20
CO[C@H](c1ncc(Cl)cn1)[C@H](C)S(=O)(=O)Nc1nnc([C@@H]2CCCO2)n1-c1ccccc1F = 1.32
COCCn1c(NS(=O)(=O)[C@@H](C)[C@H](OC)c2ncc(Cl)cn2)nnc1[C@@H]1COCCO1 (single isomer, unassigned) [Example 312.0] = 3.28

----------
- target_or_system: human APJ receptor (Homo sapiens (Human))
- measurement_notes: [35S]GTPγS binding assay on membranes from CHO cells stably expressing human APJ receptor
- condition_summary: read-out: Activity hAPJ SPA EC50 IP
readout_name: EC50 (nM)

COc1cccc(OC)c1-n1c(NS(=O)(=O)[C@@H](C)[C@H](C)c2ncc(C)cn2)nnc1[C@H]1CCCCO1 (single isomer, unassigned) [Example 86.0] = 2.1
COc1cccc(OC)c1-n1c(NS(=O)(=O)[C@@H](C)[C@H](C)c2ncc(C#N)cn2)nnc1[C@H]1CCOC1 (single isomer, unassigned) [Example 174.0] = 210
COc1cccc(OC)c1-n1c(NS(=O)(=O)[C@@H](C)[C@H](OC)c2ncc(Cl)cn2)nnc1[C@H]1CCC(=O)N1 (single isomer, unassigned) [Example 397.0] = 160
COc1cccc(OC)c1-n1c(NS(=O)(=O)[C@@H](C)[C@H](C)c2ncc(Cl)cn2)nnc1C1COC1 = 140
COc1cccc(OC)c1-n1c(NS(=O)(=O)[C@@H](C)[C@@H](OC(C)C)c2ncc(Cl)cn2)nnc1[C@H]1CCC(C)(C)O1 (single isomer, unassigned) [Example 413.0] = 7.4
COc1ncnc(OC)c1-n1c(NS(=O)(=O)[C@@H](C)[C@H](C)c2ncc(C)cn2)nnc1[C@H]1CCCO1 (single isomer, unassigned) [Example 69.0] = 82
